Exercise: state measured log2 fold change for each of the compounds provided.
- Tested system: YLPM1 (UniProt P49750)
- Sequence (P49750 whole entry, looked up): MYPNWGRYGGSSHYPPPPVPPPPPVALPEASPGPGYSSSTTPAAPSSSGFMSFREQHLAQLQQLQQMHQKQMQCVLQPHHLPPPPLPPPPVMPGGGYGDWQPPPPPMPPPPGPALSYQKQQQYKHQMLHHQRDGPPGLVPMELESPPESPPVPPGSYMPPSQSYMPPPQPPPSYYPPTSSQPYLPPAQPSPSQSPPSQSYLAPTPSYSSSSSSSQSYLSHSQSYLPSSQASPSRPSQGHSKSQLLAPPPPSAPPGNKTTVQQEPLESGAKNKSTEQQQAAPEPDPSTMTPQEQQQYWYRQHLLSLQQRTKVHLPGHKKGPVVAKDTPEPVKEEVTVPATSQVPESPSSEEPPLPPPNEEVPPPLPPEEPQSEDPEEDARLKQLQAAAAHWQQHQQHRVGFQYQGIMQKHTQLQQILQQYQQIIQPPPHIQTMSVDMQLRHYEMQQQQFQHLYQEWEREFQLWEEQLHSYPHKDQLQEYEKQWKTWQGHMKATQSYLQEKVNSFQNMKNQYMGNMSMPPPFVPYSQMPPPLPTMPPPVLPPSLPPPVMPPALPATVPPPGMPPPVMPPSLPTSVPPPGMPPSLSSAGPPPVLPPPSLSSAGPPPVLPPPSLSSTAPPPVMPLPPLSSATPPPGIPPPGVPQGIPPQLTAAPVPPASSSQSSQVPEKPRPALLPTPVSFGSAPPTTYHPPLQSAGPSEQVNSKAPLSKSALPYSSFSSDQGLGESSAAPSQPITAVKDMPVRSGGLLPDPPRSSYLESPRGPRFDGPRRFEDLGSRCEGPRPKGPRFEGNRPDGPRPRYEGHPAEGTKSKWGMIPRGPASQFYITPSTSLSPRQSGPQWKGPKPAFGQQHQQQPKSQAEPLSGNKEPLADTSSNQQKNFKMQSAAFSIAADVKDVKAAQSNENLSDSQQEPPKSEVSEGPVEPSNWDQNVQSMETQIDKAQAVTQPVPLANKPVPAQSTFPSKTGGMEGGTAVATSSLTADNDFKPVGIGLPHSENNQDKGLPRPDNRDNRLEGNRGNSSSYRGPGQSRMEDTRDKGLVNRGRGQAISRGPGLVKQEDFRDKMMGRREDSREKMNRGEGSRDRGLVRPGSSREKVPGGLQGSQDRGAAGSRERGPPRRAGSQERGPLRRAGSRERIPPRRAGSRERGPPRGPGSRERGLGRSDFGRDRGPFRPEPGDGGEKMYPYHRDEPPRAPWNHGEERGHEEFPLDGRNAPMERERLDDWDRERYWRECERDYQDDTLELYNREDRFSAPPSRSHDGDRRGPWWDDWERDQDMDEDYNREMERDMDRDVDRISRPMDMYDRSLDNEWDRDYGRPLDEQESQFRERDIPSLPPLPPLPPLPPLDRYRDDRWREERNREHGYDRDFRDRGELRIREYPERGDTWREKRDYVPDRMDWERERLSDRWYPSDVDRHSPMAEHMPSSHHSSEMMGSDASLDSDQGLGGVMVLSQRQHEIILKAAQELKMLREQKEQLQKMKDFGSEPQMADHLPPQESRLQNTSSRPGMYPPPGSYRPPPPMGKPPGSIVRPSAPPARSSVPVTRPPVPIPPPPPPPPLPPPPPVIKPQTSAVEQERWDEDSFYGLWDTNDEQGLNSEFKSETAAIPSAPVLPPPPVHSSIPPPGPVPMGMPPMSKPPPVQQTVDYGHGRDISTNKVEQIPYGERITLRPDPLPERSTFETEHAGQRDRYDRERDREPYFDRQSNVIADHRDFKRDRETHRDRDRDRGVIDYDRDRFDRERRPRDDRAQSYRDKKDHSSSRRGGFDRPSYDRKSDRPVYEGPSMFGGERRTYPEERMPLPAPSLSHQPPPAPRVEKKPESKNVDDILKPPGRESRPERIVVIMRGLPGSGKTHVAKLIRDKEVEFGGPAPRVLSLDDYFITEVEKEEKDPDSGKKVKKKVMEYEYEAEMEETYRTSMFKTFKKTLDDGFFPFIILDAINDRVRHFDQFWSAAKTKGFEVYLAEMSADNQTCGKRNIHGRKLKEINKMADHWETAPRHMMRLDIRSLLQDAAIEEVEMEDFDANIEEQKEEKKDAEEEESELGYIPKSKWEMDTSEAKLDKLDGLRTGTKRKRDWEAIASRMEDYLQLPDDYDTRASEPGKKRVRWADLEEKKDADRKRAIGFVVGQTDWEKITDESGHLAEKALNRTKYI
- Assay method text: log2 fold change, soluble protein after heating vs DMSO (PISA); higher = thermal stabilisation; K562 cells, 10 uM, 30 min; active = over 0.2 and 3.5 SD of the protein, either way, in both replicates (recomputed)
About 7,900 targets were measured; listed, in parts, are those with a hit and a random draw of the rest. About 0.6% of all pairs of compound and target were hits.
Field format: numeric only.

log2 fold change reported for this compound `CC[C@H](C)n1cc(C)c2c(C(=O)NCc3c(C)cc(C)[nH]c3=O)cc(-c3ccc(N4CCNCC4)nc3)cc21` : 0.067

// field: log2 fold change; key: `c1cn2cc(-c3ccc4cn[nH]c4c3)nc(Nc3ccc(N4CCOCC4)cc3)c2n1` ; value = -0.105

Lab note: `CCCCN(Cc1ccc(C(=O)NO)cc1)C(=O)Nc1ccccc1` gave log2 fold change of 0.046

compound `Cc1ccc(NC(=O)c2cccc(C(C)(C)C#N)c2)cc1Nc1ccc2ncn(C)c(=O)c2c1` , log2 fold change observed: -0.095

Record summary for `CON(C)C(=O)N1N=C(c2cc(F)ccc2F)S[C@@]1(CCCN)c1ccccc1` : reported log2 fold change = 0.083

Lab note: `CN1CCN(CCOc2cc(OC3CCOCC3)c3c(Nc4c(Cl)ccc5c4OCO5)ncnc3c2)CC1` gave log2 fold change of 0

Summary for this compound, `Oc1cc(-c2nc(-c3ccccc3)[nH]c2-c2ccncc2)ccc1Cl` : log2 fold change is -0.024

Lookup result for `CC(C)(O)CC(=O)NCCn1ccc2ncnc(Nc3ccc(Oc4cccc(C(F)(F)F)c4)c(Cl)c3)c21` ; measured log2 fold change: -0.002

According to the records, this compound `Cn1cc(-c2ccc3c(c2)CCN3C(=O)Cc2cccc(C(F)(F)F)c2)c2c(N)ncnc21` displays log2 fold change of 0.077

The value of log2 fold change measured for the compound `CC(C)N(C[C@H]1O[C@@H](n2cnc3c(N)ncnc32)[C@H](O)[C@@H]1O)[C@H]1C[C@@H](CCc2nc3cc(C(C)(C)C)ccc3[nH]2)C1` turned out to be 0.003

Lab note: `CCN(CC)Cc1ccc2cc(COC(=O)Nc3ccc(C(=O)NO)cc3)ccc2c1` gave log2 fold change of 0.061

Lookup result for `C[C@@H](Oc1cc(-c2cnn(C3CCNCC3)c2)cnc1N)c1c(Cl)ccc(F)c1Cl` ; measured log2 fold change: -0.08

Data point: `C=CC(=O)N1CCC[C@@H](n2nc(-c3ccc(Oc4ccccc4)cc3)c3c(N)ncnc32)C1` ; log2 fold change = -0.117

log2 fold change reading for `CCN(CCCOc1ccc2c(Nc3cc(CC(=O)Nc4cccc(F)c4)[nH]n3)ncnc2c1)CCOP(=O)(O)O` : 0.03

Summary for this compound, `C[C@@H]1COCCN1c1cc(C2(S(C)(=O)=O)CC2)nc(-c2cccc3[nH]ccc23)n1` : log2 fold change is 0.015

The reported log2 fold change of the compound `CS(=O)(=O)c1ccc(-c2cnc(N)c(C(=O)Nc3ccccc3)n2)cc1` was -0.051
